- ASSAY_SYSTEM: factor B (Homo sapiens, UniProt P00751)
- Sequence (P00751 26-764): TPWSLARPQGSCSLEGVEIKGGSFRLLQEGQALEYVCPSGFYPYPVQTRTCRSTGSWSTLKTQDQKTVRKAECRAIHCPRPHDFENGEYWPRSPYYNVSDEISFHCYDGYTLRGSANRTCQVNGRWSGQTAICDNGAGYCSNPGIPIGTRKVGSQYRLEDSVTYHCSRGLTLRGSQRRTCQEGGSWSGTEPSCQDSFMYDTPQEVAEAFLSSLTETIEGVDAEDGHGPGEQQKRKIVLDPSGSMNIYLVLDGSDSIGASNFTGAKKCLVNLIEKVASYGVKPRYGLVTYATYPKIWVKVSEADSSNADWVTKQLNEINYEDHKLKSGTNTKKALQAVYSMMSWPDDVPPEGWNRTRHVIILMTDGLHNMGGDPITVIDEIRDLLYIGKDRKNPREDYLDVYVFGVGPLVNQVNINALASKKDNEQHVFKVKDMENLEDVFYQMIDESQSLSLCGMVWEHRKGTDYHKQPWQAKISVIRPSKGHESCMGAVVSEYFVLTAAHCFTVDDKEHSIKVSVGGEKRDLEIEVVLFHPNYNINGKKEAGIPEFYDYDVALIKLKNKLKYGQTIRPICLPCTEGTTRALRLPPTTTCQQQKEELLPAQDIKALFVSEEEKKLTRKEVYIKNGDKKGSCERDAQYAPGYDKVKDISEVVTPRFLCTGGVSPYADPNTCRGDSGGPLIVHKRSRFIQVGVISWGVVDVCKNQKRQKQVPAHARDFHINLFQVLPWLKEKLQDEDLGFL
- EXPERIMENTAL_DETAILS: assay of Biological Example 2.7
- Format: binding
- Set-up: made in house; host or cells: drosophila cells
- CONDITION_NOTES: assay of Biological Example 2.7 (Table 2)
pIC50: −log10 of the molar value.
Would you mind labelling by pIC50? At or over 7 is Criterion met, under is Criterion not met.

molecule="COc1cc(C)c2[nH]ccc2c1C(Cc1nn[nH]n1)c1nc2cc(C#N)ccc2o1 (racemic) [Example 153]" assay_system="factor B (Homo sapiens, UniProt P00751)" assigned_class="Criterion not met"
molecule="COc1cc(C)c2[nH]ccc2c1C(N)c1nc2cc(C#N)ccc2s1 (centres unmarked) [Example 137-E]" assay_system="factor B (Homo sapiens, UniProt P00751)" assigned_class="Criterion not met"
molecule="COc1cc(C)c2[nH]ccc2c1C(N)(c1nc2cc(C#N)ccc2o1)C(F)(F)F (single isomer, unassigned) [137-B b) (tr = 2.7 min)]" assay_system="factor B (Homo sapiens, UniProt P00751)" assigned_class="Criterion met"
molecule="COc1cc(C)c2[nH]ccc2c1C(CC(=O)O)c1nc2cc(C#N)ccc2o1 (single isomer, unassigned; (+)) [Example 148-D]" assay_system="factor B (Homo sapiens, UniProt P00751)" assigned_class="Criterion not met"
molecule="COc1cc(C)c2[nH]ccc2c1C(C)(O)c1cc2cc(C#N)ccc2[nH]1 (centres unmarked) [Example 137-U]" assay_system="factor B (Homo sapiens, UniProt P00751)" assigned_class="Criterion met"
